// HepSE_hepatitis collected for Hepatotoxicity
Please reply with the value in numeric form only.

Recorded results for 3 compounds are shown here.
compound	HepSE_hepatitis
CC=CC1=C(C(=O)O)N2C(=O)[C@@H](NC(=O)[C@H](N)c3ccc(O)cc3)[C@H]2SC1 [CEFPROZIL]	0
CCCc1nc2c(C)cc(-c3nc4ccccc4n3C)cc2n1Cc1ccc(-c2ccccc2C(=O)O)cc1	0
COC(=O)N[C@H](C(=O)N[C@@H](Cc1ccccc1)[C@@H](O)CN(Cc1ccc(-c2ccccn2)cc1)NC(=O)[C@@H](NC(=O)OC)C(C)(C)C)C(C)(C)C [ATAZANAVIR]	1

Fill blank: measured HepSE_hepatitis of the compound C[C@]12CCC(=O)C=C1CC[C@@H]1[C@@H]2CC[C@@]2(C)[C@H]1CC[C@]2(C)O [METHYLTESTOSTERONE] is ____.
0

====

# Tested on: Hepatotoxicity
# testSettings: Liver
observable: HepSE_jaundice

Here's what some known entries look like.
compound	HepSE_jaundice
CC(C)NCC(O)c1ccc(O)c(O)c1 (stereo not drawn)	0
C#CCN[C@@H]1CCc2ccccc21	1

Turning to the following compound.
What value of HepSE_jaundice has been recorded for this entry: "CN(C)CCC=C1c2ccccc2C=Cc2ccccc21"
1

====

# Tested on: Hepatotoxicity
# cutoff 2 applies to HepSE_Combined Scores; >= gives Met, < gives Not met

Use the examples below as a reference point.
compound	classification
O.O=P(O)(O)C(O)(Cn1ccnc1)P(=O)(O)O	Not met
Nc1ccc(C(=O)NCC(=O)O)cc1	Not met
CNC(=C[N+](=O)[O-])NCCSCc1ccc(CN(C)C)o1	Met
COc1cc2nc(N3CCN(C(=O)c4ccco4)CC3)nc(N)c2cc1OC	Not met
CC(C)/N=c1\cc2n(-c3ccc(Cl)cc3)c3ccccc3nc-2cc1Nc1ccc(Cl)cc1	Met
C=C1C[C@@H]2[C@H](CC[C@]3(C)C(=O)CC[C@@H]23)[C@@]2(C)C=CC(=O)C=C12	Not met
COc1ccccc1OCC(O)CN1CCN(CC(=O)Nc2c(C)cccc2C)CC1 (stereo unspecified)	Not met
Cc1ccc(-c2nc3ccc(C)cn3c2CC(=O)N(C)C)cc1	Not met
NCCCC[C@H](N[C@@H](CCc1ccccc1)C(=O)O)C(=O)N1CCC[C@H]1C(=O)O [LISINOPRIL ANHYDROUS]	Met
CCCCN(CCCC)CCC(O)c1cc2c(Cl)cc(Cl)cc2c2cc(C(F)(F)F)ccc12 (stereo unspecified)	Not met

Quick check, HepSE_Combined Scores >= 2? CC12CC3CC(C)(C1)CC(N)(C3)C2 [MEMANTINE]
Met

Hi, just wondering whether Cn1nnc2c(C(N)=O)ncn2c1=O [TEMOZOLOMIDE] shows HepSE_Combined Scores of 2 or higher.
Not met

Determine whether this compound has HepSE_Combined Scores no lower than 2: "CCOC(=O)c1ncn2c1CN(C)C(=O)c1cc(F)ccc1-2"
Not met

Check this compound for HepSE_Combined Scores at or above 2: "CCCN1CCCC[C@H]1C(=O)Nc1c(C)cccc1C"
Not met

Could you verify whether the entry FC(F)(F)C(Cl)Br (stereo unspecified) shows HepSE_Combined Scores of no less than 2?
Not met

Is it the case that OC(CNCC(O)C1CCc2cc(F)ccc2O1)C1CCc2cc(F)ccc2O1 (stereo unspecified) has HepSE_Combined Scores reaching or exceeding 2?
Not met

Does the reported HepSE_Combined Scores for CC1(C)S[C@@H]2[C@H](NC(=O)C(C(=O)Oc3ccc4c(c3)CCC4)c3ccccc3)C(=O)N2[C@H]1C(=O)[O-].[Na+] (stereo partly specified) [CARBENICILLIN INDANYL SODIUM] fall at or above the 2 mark?
Not met

====

Hepatotoxicity measurements of HepSE_jaundice, listed per entry.

compound	studyTarget	observable	val
CC[C@@H](CO)NC(=O)[C@@H]1C=C2c3cccc4c3c(cn4C)C[C@H]2N(C)C1 [METHYSERGIDE]	Hepatotoxicity	HepSE_jaundice	0
C[C@H](CCC(=O)O)[C@H]1CC[C@H]2[C@@H]3[C@@H](O)C[C@@H]4C[C@H](O)CC[C@]4(C)[C@H]3CC[C@]12C	Hepatotoxicity	HepSE_jaundice	0
CC(C)OC(=O)C(C)(C)Oc1ccc(C(=O)c2ccc(Cl)cc2)cc1 [FENOFIBRATE]	Hepatotoxicity	HepSE_jaundice	1
NS(=O)(=O)Cc1noc2ccccc12 [ZONISAMIDE]	Hepatotoxicity	HepSE_jaundice	1
CC1=C(C(=O)O)N2C(=O)[C@@H](NC(=O)[C@H](N)C3=CCC=CC3)[C@H]2SC1	Hepatotoxicity	HepSE_jaundice	0
CCN(C)C(=O)Oc1cccc([C@H](C)N(C)C)c1	Hepatotoxicity	HepSE_jaundice	0

Can you look up HepSE_jaundice on Hepatotoxicity for "Cc1cn([C@H]2C=C[C@@H](CO)O2)c(=O)[nH]c1=O" ?
0

What value of HepSE_jaundice on Hepatotoxicity does "C[C@](N)(Cc1ccc(O)c(O)c1)C(=O)O" have?
1

// fetch Hepatotoxicity HepSE_jaundice for "C[N+](C)(C)CCO.Cn1c(=O)c2[n-]cnc2n(C)c1=O"
0

# returns recorded HepSE_jaundice (system: Hepatotoxicity) for "CO/N=C(\C(=O)N[C@@H]1C(=O)N2C(C(=O)OCOC(=O)C(C)(C)C)=C(/C=C\c3scnc3C)CS[C@H]12)c1csc(N)n1"
0

Give recorded HepSE_jaundice with Hepatotoxicity for the following compound: OCc1cc(C(O)CNCCCCCCOCCCCc2ccccc2)ccc1O (configuration not stated)
0

Item: "CCCN(CCC)S(=O)(=O)c1ccc(C(=O)O)cc1" Test system: Hepatotoxicity Read-out: HepSE_jaundice Value: ?
0

Request: HepSE_jaundice, test system Hepatotoxicity, entry Nc1cccc2c1CN(C1CCC(=O)NC1=O)C2=O (configuration not stated) [LENALIDOMIDE]
0

What reported HepSE_jaundice corresponds to Cl.N [AMMONIUM CHLORIDE] on Hepatotoxicity?
0

Lab note: need HepSE_jaundice for "CNS(=O)(=O)CCc1ccc2[nH]cc(C3CCN(C)CC3)c2c1" on Hepatotoxicity, anyone have it?
0

====

# Test system: Hepatotoxicity
Listing of recorded HepSE_hepatitis by entry.
// print number alone

// known answers, use as guide
molecule	val
C[N+](C)(C)CCOC(=O)CCC(=O)OCC[N+](C)(C)C	0
C[C@]12CCC(=O)C=C1CC[C@H]1[C@@H]3CC[C@](O)(C(=O)CO)[C@@]3(C)C[C@H](O)[C@@]12F	0
Cc1ccc(C(=O)c2ccc(CC(=O)O)n2C)cc1	1
CN1CCN(C2=Nc3ccccc3Oc3ccc(Cl)cc32)CC1	1
CC(=O)OCC(=O)[C@@]12OC(C)(C)O[C@@H]1C[C@H]1[C@@H]3C[C@H](F)C4=CC(=O)C=C[C@]4(C)[C@@]3(F)[C@@H](O)C[C@@]12C [FLUOCINONIDE]	0

Short answer please: HepSE_hepatitis, Hepatotoxicity, entry "CC(=O)[C@@]1(O)CC[C@H]2[C@@H]3C[C@H](C)C4=CC(=O)C=C[C@]4(C)[C@@]3(F)[C@@H](O)C[C@@]21C"
0

# value lookup — system Hepatotoxicity, readout HepSE_hepatitis, item "CC[C@@]1(O)C(=O)OCc2c1cc1n(c2=O)Cc2cc3c(CN(C)C)c(O)ccc3nc2-1"
0

Recorded HepSE_hepatitis for CC(=O)O.NCc1ccc(S(N)(=O)=O)cc1 [MAFENIDE ACETATE] with Hepatotoxicity, please?
0

So what HepSE_hepatitis did "CCCCC[C@H](O)/C=C/[C@@H]1[C@H]2C/C(=C/CCCC(=O)O)O[C@H]2C[C@H]1O" get with Hepatotoxicity?
0

GET /values?readout=HepSE_hepatitis&system=Hepatotoxicity&item= C[C@@H](O[C@H]1OCCN(Cc2n[nH]c(=O)[nH]2)[C@H]1c1ccc(F)cc1)c1cc(C(F)(F)F)cc(C(F)(F)F)c1 [APREPITANT]
0

====

# Test system: Hepatotoxicity
# testSettings: Liver
observable: HepSE_hepatic necrosis
# print the numeric value only

Reported HepSE_hepatic necrosis, compound "Nc1ccc(S(=O)(=O)c2ccc(N)cc2)cc1" : ____
0

Could you tell me which HepSE_hepatic necrosis is on file for "CN1C(=O)CN=C(c2ccccc2)c2cc(Cl)ccc21" ?
0

Query: HepSE_hepatic necrosis; subject: CCc1cc(C(N)=S)ccn1 [ETHIONAMIDE]
0

HepSE_hepatic necrosis lookup needed for "Cn1cnc([N+](=O)[O-])c1Sc1ncnc2nc[nH]c12" , thanks.
0

Looking for the measured HepSE_hepatic necrosis of "Clc1ccc2nsnc2c1NC1=NCCN1" , can you help?
1

Please report the recorded HepSE_hepatic necrosis for "NC(N)=Nc1nc(CSCCC(N)=NS(N)(=O)=O)cs1" .
0

Fill blank: measured HepSE_hepatic necrosis of the compound "CCn1cc(C(=O)O)c(=O)c2cc(F)c(N3CCNCC3)cc21" is ____.
1
